- System: NCI-H226 complex tumor spheroids, viability
- test-description: Anticancer human tumor NCI-H226 cell line growth inhibition; active means viability on the fitted dose curve at most 10% of control; inactive means the rest;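 further: spheroids exposed to compound for 7 days; 100% = DMSO vehicle control viability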
- particulars: second compound 0.003 µM; first compound 0.03 µM
Parameter call: string, one of active, inactive

These recorded examples may help you get a feel for the data.
compound	group
CNCc1ccc(-c2cc(-c3nc(-c4ccc(S(=O)(=O)C(C)C)cc4)cnc3N)on2)cc1 + COc1cc2c(cc1O)CCNC21CSC2c3c(OC(C)=O)c(C)c4c(c3C(COC1=O)N1C(O)C3Cc5cc(C)c(OC)c(O)c5C(C21)N3C)OCO4	active
CNCc1ccc(-c2cc(-c3nc(-c4ccc(S(=O)(=O)C(C)C)cc4)cnc3N)on2)cc1 + CC[C@@]1(O)C(=O)OCc2c1cc1n(c2=O)Cc2cc3c(CN(C)C)c(O)ccc3nc2-1	inactive
Cc1sc2c(c1C)C(c1ccc(Cl)cc1)=NC(CC(=O)Nc1ccc(O)cc1)c1nnc(C)n1-2 (stereo unspecified) + CC[C@@]1(O)C(=O)OCc2c1cc1n(c2=O)Cc2cc3c(CN(C)C)c(O)ccc3nc2-1	inactive
Cc1sc2c(c1C)C(c1ccc(Cl)cc1)=NC(CC(=O)Nc1ccc(O)cc1)c1nnc(C)n1-2 (stereo unspecified) + COc1cc2c(cc1O)CCNC21CSC2c3c(OC(C)=O)c(C)c4c(c3C(COC1=O)N1C(O)C3Cc5cc(C)c(OC)c(O)c5C(C21)N3C)OCO4	active
Cn1ncnc1[C@H]1c2n[nH]c(=O)c3cc(F)cc(c23)N[C@@H]1c1ccc(F)cc1 + COc1cc2c(cc1O)CCNC21CSC2c3c(OC(C)=O)c(C)c4c(c3C(COC1=O)N1C(O)C3Cc5cc(C)c(OC)c(O)c5C(C21)N3C)OCO4	inactive

Now take the following compound into account.
Query: Outcome? Cn1ncnc1[C@H]1c2n[nH]c(=O)c3cc(F)cc(c23)N[C@@H]1c1ccc(F)cc1 + CC[C@@]1(O)C(=O)OCc2c1cc1n(c2=O)Cc2cc3c(CN(C)C)c(O)ccc3nc2-1
Reply: inactive

====

- Tested on: NCI-H226 complex tumor spheroids, viability
- test-description: Anticancer human tumor NCI-H226 cell line growth inhibition;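 further: spheroids exposed to compound for 7 days; 100% = DMSO vehicle control viability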
- particulars: second compound 100 µM; first compound 3.16 µM; active compounds read low
molecules and their reported viability, T/C
Expressed in %, but write only the number.

Before answering, review these 4 worked examples.
molecule	target-system	viability, T/C [%]
CC(C)n1c(=O)n(C)c2cnc3cc(F)c(-c4ccc(OCCCN5CCCCC5)nc4)cc3c21 + Cn1nnc2c(C(N)=O)ncn2c1=O	NCI-H226 complex tumor spheroids, viability	105
COc1cc(C)[nH]c(=O)c1CN1CCc2c(Cl)cc(C(OC)C3COC3)c(Cl)c2C1=O (stereo unspecified) + Cn1nnc2c(C(N)=O)ncn2c1=O	NCI-H226 complex tumor spheroids, viability	137
[2H]c1nc(C)nc([2H])c1-c1cc(NC[C@@H](C)c2cccc3c(C(=O)NC)ccnc23)ncn1 + Cn1nnc2c(C(N)=O)ncn2c1=O	NCI-H226 complex tumor spheroids, viability	117
Cc1cc(C)c(CNC(=O)c2cc(-c3ccc(CN4CCOCC4)cc3)cc3c2cnn3C2CCCC2)c(=O)[nH]1 + Cn1nnc2c(C(N)=O)ncn2c1=O	NCI-H226 complex tumor spheroids, viability	110

Query: Respond only with viability, T/C recorded for COc1ccc([C@@H](O)c2cc(-c3ncnc4cc(N5CCOCC5)ccc34)c(F)cc2Cl)nn1 + Cn1nnc2c(C(N)=O)ncn2c1=O
Reply: 56.1

Query: Respond only with viability, T/C recorded for CC1COCCN1c1cc(-c2ccnn2C)c2ccnc(-c3ccn[nH]3)c2n1 (stereo unspecified) + Cn1nnc2c(C(N)=O)ncn2c1=O
Reply: 46.2

====

- Test system: NCI-H226 complex tumor spheroids, viability
- test-description: Anticancer human tumor NCI-H226 cell line growth inhibition;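 further: spheroids exposed to compound for 7 days; 100% = DMSO vehicle control viability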
- particulars: second compound 0.0003 µM; first compound 1 µM; active compounds read low
measurement-kind: viability, T/C

compound	observed-result
CC1COCCN1c1cc(-c2ccnn2C)c2ccnc(-c3ccn[nH]3)c2n1 (configuration not stated) + COc1cc2c(cc1O)CCNC21CSC2c3c(OC(C)=O)c(C)c4c(c3C(COC1=O)N1C(O)C3Cc5cc(C)c(OC)c(O)c5C(C21)N3C)OCO4	71.3%

Please find the next compound below.
Query: Respond only with viability, T/C recorded for CC(C)n1c(=O)n(C)c2cnc3cc(F)c(-c4ccc(OCCCN5CCCCC5)nc4)cc3c21 + COc1cc2c(cc1O)CCNC21CSC2c3c(OC(C)=O)c(C)c4c(c3C(COC1=O)N1C(O)C3Cc5cc(C)c(OC)c(O)c5C(C21)N3C)OCO4
Reply: 102%

====

- System: NCI-H226 complex tumor spheroids, viability
- test-description: Anticancer human tumor NCI-H226 cell line growth inhibition;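 further: spheroids exposed to compound for 7 days; 100% = DMSO vehicle control viability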
- particulars: second compound 0.0003 µM; first compound 3.16 µM; active compounds read low
compounds and their reported viability, T/C
Expressed in %, but write only the number.

compound	target-system	measurement-kind	observed-result
CC1COCCN1c1cc(-c2ccnn2C)c2ccnc(-c3ccn[nH]3)c2n1 (stereo unspecified) + COc1cc2c(cc1O)CCNC21CSC2c3c(OC(C)=O)c(C)c4c(c3C(COC1=O)N1C(O)C3Cc5cc(C)c(OC)c(O)c5C(C21)N3C)OCO4	NCI-H226 complex tumor spheroids, viability	viability, T/C	57.8
COc1ccc([C@@H](O)c2cc(-c3ncnc4cc(N5CCOCC5)ccc34)c(F)cc2Cl)nn1 + COc1cc2c(cc1O)CCNC21CSC2c3c(OC(C)=O)c(C)c4c(c3C(COC1=O)N1C(O)C3Cc5cc(C)c(OC)c(O)c5C(C21)N3C)OCO4	NCI-H226 complex tumor spheroids, viability	viability, T/C	54.7
Cc1cc(C)c(CNC(=O)c2cc(-c3ccc(CN4CCOCC4)cc3)cc3c2cnn3C2CCCC2)c(=O)[nH]1 + COc1cc2c(cc1O)CCNC21CSC2c3c(OC(C)=O)c(C)c4c(c3C(COC1=O)N1C(O)C3Cc5cc(C)c(OC)c(O)c5C(C21)N3C)OCO4	NCI-H226 complex tumor spheroids, viability	viability, T/C	110
CC(C)n1c(=O)n(C)c2cnc3cc(F)c(-c4ccc(OCCCN5CCCCC5)nc4)cc3c21 + COc1cc2c(cc1O)CCNC21CSC2c3c(OC(C)=O)c(C)c4c(c3C(COC1=O)N1C(O)C3Cc5cc(C)c(OC)c(O)c5C(C21)N3C)OCO4	NCI-H226 complex tumor spheroids, viability	viability, T/C	102
COc1cc(C)[nH]c(=O)c1CN1CCc2c(Cl)cc(C(OC)C3COC3)c(Cl)c2C1=O (stereo unspecified) + COc1cc2c(cc1O)CCNC21CSC2c3c(OC(C)=O)c(C)c4c(c3C(COC1=O)N1C(O)C3Cc5cc(C)c(OC)c(O)c5C(C21)N3C)OCO4	NCI-H226 complex tumor spheroids, viability	viability, T/C	140

Please find the next compound below.
Query: Respond only with viability, T/C recorded for [2H]c1nc(C)nc([2H])c1-c1cc(NC[C@@H](C)c2cccc3c(C(=O)NC)ccnc23)ncn1 + COc1cc2c(cc1O)CCNC21CSC2c3c(OC(C)=O)c(C)c4c(c3C(COC1=O)N1C(O)C3Cc5cc(C)c(OC)c(O)c5C(C21)N3C)OCO4
Reply: 98.7

====

molecules and their reported viability, T/C
- Test system: NCI-H226 complex tumor spheroids, viability
- test-description: Anticancer human tumor NCI-H226 cell line growth inhibition;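 further: spheroids exposed to compound for 7 days; 100% = DMSO vehicle control viability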
- particulars: second compound 31.6 µM; first compound 3.16 µM; active compounds read low
Expressed in %, but write only the number.

Before answering, review these 5 worked examples.
molecule	measurement-units	viability, T/C
COc1ccc([C@@H](O)c2cc(-c3ncnc4cc(N5CCOCC5)ccc34)c(F)cc2Cl)nn1 + Cn1nnc2c(C(N)=O)ncn2c1=O	%	54.2
CC1COCCN1c1cc(-c2ccnn2C)c2ccnc(-c3ccn[nH]3)c2n1 (stereo unspecified) + Cn1nnc2c(C(N)=O)ncn2c1=O	%	46.1
CC(C)n1c(=O)n(C)c2cnc3cc(F)c(-c4ccc(OCCCN5CCCCC5)nc4)cc3c21 + Cn1nnc2c(C(N)=O)ncn2c1=O	%	99.9
COc1cc(C)[nH]c(=O)c1CN1CCc2c(Cl)cc(C(OC)C3COC3)c(Cl)c2C1=O (stereo unspecified) + Cn1nnc2c(C(N)=O)ncn2c1=O	%	135
Cc1cc(C)c(CNC(=O)c2cc(-c3ccc(CN4CCOCC4)cc3)cc3c2cnn3C2CCCC2)c(=O)[nH]1 + Cn1nnc2c(C(N)=O)ncn2c1=O	%	103

Please find the next molecule below.
Query: Respond only with viability, T/C recorded for [2H]c1nc(C)nc([2H])c1-c1cc(NC[C@@H](C)c2cccc3c(C(=O)NC)ccnc23)ncn1 + Cn1nnc2c(C(N)=O)ncn2c1=O
Reply: 123

====

molecules and their reported viability, T/C
- System: NCI-H226 complex tumor spheroids, viability
- test-description: Anticancer human tumor NCI-H226 cell line growth inhibition;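 further: spheroids exposed to compound for 7 days; 100% = DMSO vehicle control viability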
- particulars: second compound 0.0949 µM; first compound 3.16 µM; active compounds read low
Expressed in %, but write only the number.

Before answering, review these 5 worked examples.
molecule	target-system	observed-result
[2H]c1nc(C)nc([2H])c1-c1cc(NC[C@@H](C)c2cccc3c(C(=O)NC)ccnc23)ncn1 + CC[C@@]1(O)C(=O)OCc2c1cc1n(c2=O)Cc2cc3c(CN(C)C)c(O)ccc3nc2-1	NCI-H226 complex tumor spheroids, viability	80.5
CC(C)n1c(=O)n(C)c2cnc3cc(F)c(-c4ccc(OCCCN5CCCCC5)nc4)cc3c21 + CC[C@@]1(O)C(=O)OCc2c1cc1n(c2=O)Cc2cc3c(CN(C)C)c(O)ccc3nc2-1	NCI-H226 complex tumor spheroids, viability	61.5
COc1cc(C)[nH]c(=O)c1CN1CCc2c(Cl)cc(C(OC)C3COC3)c(Cl)c2C1=O (stereo unspecified) + CC[C@@]1(O)C(=O)OCc2c1cc1n(c2=O)Cc2cc3c(CN(C)C)c(O)ccc3nc2-1	NCI-H226 complex tumor spheroids, viability	88.3
Cc1cc(C)c(CNC(=O)c2cc(-c3ccc(CN4CCOCC4)cc3)cc3c2cnn3C2CCCC2)c(=O)[nH]1 + CC[C@@]1(O)C(=O)OCc2c1cc1n(c2=O)Cc2cc3c(CN(C)C)c(O)ccc3nc2-1	NCI-H226 complex tumor spheroids, viability	76.1
COc1ccc([C@@H](O)c2cc(-c3ncnc4cc(N5CCOCC5)ccc34)c(F)cc2Cl)nn1 + CC[C@@]1(O)C(=O)OCc2c1cc1n(c2=O)Cc2cc3c(CN(C)C)c(O)ccc3nc2-1	NCI-H226 complex tumor spheroids, viability	44.8

Please find the next molecule below.
Query: Respond only with viability, T/C recorded for CC1COCCN1c1cc(-c2ccnn2C)c2ccnc(-c3ccn[nH]3)c2n1 (stereo unspecified) + CC[C@@]1(O)C(=O)OCc2c1cc1n(c2=O)Cc2cc3c(CN(C)C)c(O)ccc3nc2-1
Reply: 37.4
